Hey, just so you know, these numbers are from ChEMBL document CHEMBL1121885.

The following are reported pKi results, target or system Inosine-5'-monophosphate dehydrogenase (Escherichia coli K-12, UniProt P0ADG7).
Give only the number. pKi is defined as minus log10 of concentration in molar units.

Worked examples follow.
Nc1ncnc2c1nc(Sc1ccc(Cl)cc1)n2C1O[C@H](COP(=O)(O)O)[C@@H](O)[C@H]1O (some centres undefined); 4.15
Nc1ncnc2c1nc(SCc1ccccc1)n2C1O[C@H](COP(=O)(O)O)[C@@H](O)[C@H]1O (some centres undefined); 3.91
O=[N+]([O-])c1ccc(CSc2nc3c(O)ncnc3n2C2O[C@H](COP(=O)(O)O)[C@@H](O)[C@H]2O)cc1 (some centres undefined); 4.59

Consider now this further compound.
Q) For Nc1ncnc2c1nc(SCc1cccc([N+](=O)[O-])c1)n2C1O[C@H](COP(=O)(O)O)[C@@H](O)[C@H]1O (some centres undefined) , what is its reported pKi?
A) 4.33

----------
The following are reported Ki results, target or system Inosine-5'-monophosphate dehydrogenase (Escherichia coli K-12, UniProt P0ADG7).
// return numeric value only (unit: µM, not printed)

Worked examples follow.
Nc1ncnc2c1nc(SCc1ccc([N+](=O)[O-])cc1Cl)n2C1O[C@H](COP(=O)(O)O)[C@@H](O)[C@H]1O (stereo partly drawn); 17
Nc1ncnc2c1nc(SCCc1ccccc1)n2C1O[C@H](COP(=O)(O)O)[C@@H](O)[C@H]1O (stereo partly drawn); 91
Nc1ncnc2c1nc(S)n2C1O[C@H](COP(=O)(O)O)[C@@H](O)[C@H]1O (stereo partly drawn); 98
COc1ccc(CSc2nc3c(=O)[nH]cnc3n2C2O[C@H](COP(=O)(O)O)[C@@H](O)[C@H]2O)cc1 (stereo partly drawn); 41

Consider now this further molecule.
Q) // fetch Inosine-5'-monophosphate dehydrogenase (Escherichia coli K-12, UniProt P0ADG7) Ki for O=c1[nH]cnc2c1nc(SCc1ccc(Cl)cc1)n2C1O[C@H](COP(=O)(O)O)[C@@H](O)[C@H]1O (stereo partly drawn)
A) 29

----------
tested-target: Inosine-5'-monophosphate dehydrogenase (Escherichia coli K-12, UniProt P0ADG7)
Sequence (P0ADG7 whole entry): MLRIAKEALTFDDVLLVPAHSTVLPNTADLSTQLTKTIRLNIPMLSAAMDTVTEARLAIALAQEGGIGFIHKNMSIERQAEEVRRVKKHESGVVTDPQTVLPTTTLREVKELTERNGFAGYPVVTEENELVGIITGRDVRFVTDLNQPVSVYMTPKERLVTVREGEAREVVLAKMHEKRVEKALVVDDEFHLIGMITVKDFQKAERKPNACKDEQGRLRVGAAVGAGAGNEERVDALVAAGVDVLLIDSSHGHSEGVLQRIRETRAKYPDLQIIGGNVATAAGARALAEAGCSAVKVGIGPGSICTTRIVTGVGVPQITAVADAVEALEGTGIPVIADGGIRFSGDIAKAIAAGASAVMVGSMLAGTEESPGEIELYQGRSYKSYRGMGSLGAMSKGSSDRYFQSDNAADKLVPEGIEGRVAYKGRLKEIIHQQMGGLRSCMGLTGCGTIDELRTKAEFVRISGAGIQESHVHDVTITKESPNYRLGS
Measured pKi values are reported for all entries that follow.
Give only the number. pKi is defined as minus log10 of concentration in molar units.

Worked examples follow.
Nc1ncnc2c1nc(SCc1ccc(Cl)cc1)n2C1O[C@H](COP(=O)(O)O)[C@@H](O)[C@H]1O (stereo partly drawn); 4.28
O=c1[nH]cnc2c1nc(SCc1ccccc1)n2C1O[C@H](COP(=O)(O)O)[C@@H](O)[C@H]1O (stereo partly drawn); 4.34

Consider now this further compound.
Q) For O=P(O)(O)OC[C@H]1OC(n2c(NCc3ccccc3)nc3c(O)ncnc32)[C@H](O)[C@@H]1O (stereo partly drawn) , what is its reported pKi?
A) 3.63
